# Test system: crabgrass
# TEST_METHOD_NOTES: Test A pre-/postemergence greenhouse test
# Type: in vivo, Digitaria sanguinalis
# TEST_SETTINGS: Preemergence, 125 g ai/ha; 0 to 100 scale, 0 no effect, 100 complete control
MEASURED_QUANTITY: Crabgrass, Large plant response rating

INSERT INTO results (compound, numeric_readout) VALUES
  ('Cn1nc(C(F)(F)F)c(C[S+]([O-])c2cc(C(F)(F)F)cc[n+]2[O-])c1Cl (racemic) [Compound 34]', 60),
  ('Cn1nc(C(F)(F)F)c(CS(=O)(=O)c2cc(Br)cc[n+]2[O-])c1Cl [Compound 32]', 0),
  ('Cc1cc[n+]([O-])c(S(=O)(=O)Cc2c(C(F)(F)F)nn(CC(F)(F)F)c2Cl)c1 [Compound 49]', 70),
  ('Cn1nc(C(F)(F)F)c(CS(=O)(=O)c2cccc[n+]2[O-])c1OCC(F)(F)F [Compound 29]', 90),
  ('Cn1nc(C(F)(F)F)c(CS(=O)(=O)c2ccc(Br)c[n+]2[O-])c1OC(F)F [Compound 13]', 40),
  ('Cn1nc(C(F)(F)C(F)(F)F)c(CS(=O)(=O)c2cccc[n+]2[O-])c1OCC(F)(F)F [Compound 84]', 60),
  ('Cc1cc[n+]([O-])c(S(=O)(=O)Cc2c(C(F)(F)F)nn(C)c2OC(F)F)c1 [Compound 2]', 90),
  ('CCCc1cc[n+]([O-])c([S+]([O-])Cc2c(C(F)(F)F)nn(C)c2OCC(F)(F)F)c1 (stereo not drawn) [Compound 114]', 90),
  ('Cn1nc(C(F)(F)F)c(C[S+]([O-])c2ccc(F)c[n+]2[O-])c1OCC(F)(F)F (stereo not drawn) [Compound 67]', 100);

---

Entries and their measured Surinam Grass plant response rating follow.
# System: Surinam grass
# TEST_METHOD_NOTES: Test C pre-/postemergence test
# Assay type: in vivo, Brachiaria decumbens
# TEST_SETTINGS: preemergence, 250 g ai/ha; scale 0 (no effect) to 100 (complete control)
MEASURED_QUANTITY: Surinam Grass plant response rating

INSERT INTO measurements (compound, numeric_readout) VALUES
  ('Cn1nc(C(F)(F)F)c(C(Cl)S(=O)(=O)c2cccc[n+]2[O-])c1OCC(F)(F)F (racemic)', 100),
  ('Cn1nc(C(F)(F)F)c(C[S+]([O-])c2cc(Cl)cc[n+]2[O-])c1Cl (racemic)', 90),
  ('Cn1nc(C(F)(F)C(F)(F)F)c(C[S+]([O-])c2cccc[n+]2[O-])c1OCC(F)(F)F (stereo not shown)', 100),
  ('CCn1nc(C(F)(F)F)c(C[S+]([O-])c2cc(C)cc[n+]2[O-])c1OCC(F)(F)F (racemic)', 100);

---

Collected Plant response rating, Soybean values appear next to each entry.
# System: soybean
# TEST_METHOD_NOTES: Test G preemergence test
# Format: in vivo, Glycine max
# TEST_SETTINGS: 125 g ai/ha, scale 0 to 100
MEASURED_QUANTITY: Plant response rating, Soybean

INSERT INTO results (compound, measured_quantity, numeric_readout) VALUES
  ('Cn1nc(C(F)(F)F)c(C(Cl)S(=O)(=O)c2cccc[n+]2[O-])c1Cl (stereo not drawn) [Compound 12]', 'Plant response rating, Soybean', 0),
  ('Cn1nc(C(F)(F)F)c(C[S+]([O-])c2cccc[n+]2[O-])c1OC(F)F (stereo not drawn) [Compound 3]', 'Plant response rating, Soybean', 20),
  ('Cc1cc[n+]([O-])c(S(=O)(=O)C(C)c2c(C(F)(F)F)nn(C)c2Cl)c1 (racemic) [Compound 14]', 'Plant response rating, Soybean', 0),
  ('Cc1cc[n+]([O-])c(S(=O)(=O)C(Cl)c2c(C(F)(F)F)nn(C)c2Cl)c1 (racemic) [Compound 22]', 'Plant response rating, Soybean', 0),
  ('Cn1nc(C(F)(F)F)c(CS(=O)(=O)c2ccc(Cl)c[n+]2[O-])c1OC(F)F [Compound 7]', 'Plant response rating, Soybean', 0),
  ('Cc1cc[n+]([O-])c(S(=O)(=O)Cc2c(C(F)(F)F)nn(C)c2OC(F)F)c1 [Compound 2]', 'Plant response rating, Soybean', 0);
